Measurement notes: Cytotoxicity assay (CellTiter-Glo, 72 h), Jurkat
Assay type: cell-based
Reported conditions: human, Jurkat cells (T lymphoma), conc 0.00610352 uM, raw data (replicates)

{"Compound": "COC1CC2CCC(C)C(O)(O2)C(=O)C(=O)N2CCCCC2C(=O)OC(C(C)CC2CCC(O)C(OC)C2)CC(O)CC(=O)C(C)C=C(C)C(O)CC(=O)C(C)CC(C)C=CC=CC=C1C (stereo not shown) [Compound 13]", "U": "%", "viability at 72 h, 0.00610352 uM": 100}
{"Compound": "CO[C@H]1C[C@@H]2CC[C@@H](C)[C@@](O)(O2)C(=O)C(=O)N2CCCC[C@H]2C(=O)O[C@H]([C@H](C)C[C@@H]2CC[C@@H](O)[C@H](OC)C2)CC(=O)[C@H](C)/C=C(\\C)[C@@H](O)[C@@H](OC)C(=O)[C@H](C)C[C@H](C)/C=C/C=C/C=C/1C [Compound 1, rapamycin, reference compound]", "U": "%", "viability at 72 h, 0.00610352 uM": 30.7}
{"Compound": "COC1CC2CCC(C)C(O)(O2)C(=O)C(=O)N2CCCCC2C(=O)OC(C(C)CC2CCC(O)C(OC)C2)CC(=O)C(C)C=C(C)C(O)C(OC)C(=O)C(C)CC(C)C=CCCC=C1C (stereo not shown) [Compound 15, 19,20-dihidro-rapamycin]", "U": "%", "viability at 72 h, 0.00610352 uM": 96.3}
{"Compound": "CO[C@@H]1C[C@H](C[C@@H](C)[C@@H]2CC(=O)[C@H](C)/C=C(\\C)[C@@H](O)[C@@H](OC)C(=O)[C@H](C)C[C@H](C)/C=C/C=C/C=C(\\C)[C@H](O)C[C@@H]3CC[C@@H](C)[C@@](O)(O3)C(=O)C(=O)N3CCCC[C@H]3C(=O)O2)CC[C@H]1O [Compound 17, (16R)-16-O-demethyl rapamycin]", "U": "%", "viability at 72 h, 0.00610352 uM": 96.3}
{"Compound": "COC1CC2CCC(C)C(O)(O2)C(=O)C(=O)N2CCCCC2C(=O)OC(C(C)CC2CCC(O)C(OC)C2)CC(=O)C(C)C=C(C)C(O)CC(=O)C(C)C=C(C)C=CC=CC=C1C (stereo not shown) [Compound 14]", "U": "%", "viability at 72 h, 0.00610352 uM": 98.3}
{"Compound": "COC1CC2CCC(C)C(O)(O2)C(=O)C(=O)N2CCCCC2C(=O)OC(C(C)CC2CCC(O)C(OC)C2)CCC(C)C=C(C)C(O)C(OC)C(=O)C(C)CC(C)C=CC=CC=C1C (stereo not shown) [Compound 16, 32-desketorapamycin]", "U": "%", "viability at 72 h, 0.00610352 uM": 34.9}
{"Compound": "CO[C@H]1C[C@@H]2CC[C@@H](C)[C@@](O)(O2)C(=O)C(=O)N2CCCC[C@H]2C(=O)O[C@H]([C@H](C)C[C@@H]2CC[C@@H](O)[C@H](OC)C2)CC(=O)[C@H](C)/C=C(\\C)[C@@H](O)CC[C@H](C)/C=C/C=C/C=C/1C [Compound 7]", "U": "%", "viability at 72 h, 0.00610352 uM": 96.7}
